Test system: RSK1(Kin.Dom.1-N-terminal)
Construct: gene RPS6KA1
TEST CONDITIONS: concentration: 1 μM, replicates: in singlicate; n = 1
QUANTITY: %Inh (%)
Only the number, expressed in %, is required.

What measured %Inh goes with `COc1nccc(-c2c(-c3ccc(F)cc3)ncn2CCCN2CCOCC2)n1` ?
0

###

Test system: FGR
TEST CONDITIONS: concentration: 1 μM, replicates: in singlicate; n = 1
Consider the cut-off 20%. If the recorded %Inh is strictly smaller, the label is Condition met; if not, the label is Condition not met.

# COMPOUND, CLASS NAME
data = [
    ("CCCCc1nn2ncccc2c1-c1ccnc(NC2CC2)n1 [GW684374]", "Condition met"),
]

Does the reported %Inh of O=C(Nc1n[nH]c2cc(-c3ccsc3)ccc12)C1CC1 [SB-732932] stay below 20%?
Condition met

Same again, this time with COC(=O)c1cccc(NC(=O)NC2CCN(c3ccnc(Nc4ccc(F)cc4)n3)C2)c1 (stereo not drawn) [GSK1379725]
Condition met

Same again, this time with Cc1ccccc1Cn1ccn2c(=O)cc(N3CCOCC3)nc12 [GSK2269905]
Condition not met

Same again, this time with Cc1ccc(NC(=O)Nc2ccccc2F)cc1-c1ccc(C(=O)Nc2ccncc2)cc1 [GSK1398477]
Condition not met

Same again, this time with `COc1ccc(CSc2nnc(-c3ccc4nccn4c3)o2)cc1C(F)(F)F`
Condition met

Same again, this time with Fc1ccc(-c2nn3cccc(F)c3c2-c2ccncc2)cc1 [GW475620]
Condition met

Same again, this time with O=c1cc(N2CCOCC2)nc2n(Cc3cccc(Cl)c3Cl)c3ccccc3n12 [GSK2299009]
Condition met

Same again, this time with CNc1nc(-c2ccc3c(N)n[nH]c3c2)cc(N2C[C@@H](C(=O)NC3CCCCC3)OC[C@H]2C)n1 [GSK2375584]
Condition met

###

System: DYRK1A
pKd: −log10 of the molar value.
QUANTITY: pKd

What measured pKd goes with COc1ccc(Nc2nccc(N3CCC(NC(=O)C(C)c4ccc(Cl)cc4)CC3)n2)cc1 (stereo not shown) ?
< 5.00

###

System: MAP3K1
TEST CONDITIONS: concentration: 1 μM, replicates: in singlicate; n = 1
Please mark class 1 if the recorded %Inh is equal to or greater than 2%, and class 0 if it falls below.

Some entries whose results are on file:
# COMPOUND, SYSTEM UNDER TEST, CLASS NAME
rows = [
    ("Cc1cccc2c(-c3ccncn3)c(-c3ccc(F)cc3)nn12", "MAP3K1", "class 0"),
    ("Fc1ccc(-c2nc[nH]c2-c2ccncc2)cc1", "MAP3K1", "class 0"),
    ("COc1ccc(CSc2nnc(-c3ccc4c(c3)CCO4)o2)cc1", "MAP3K1", "class 0"),
    ("CNc1nc(-c2ccc3c(N)n[nH]c3c2)cc(N2C[C@@H](C(=O)NC3CCCCC3)OC[C@H]2C)n1", "MAP3K1", "class 0"),
    ("COc1ccc(-c2coc3ccc(-c4nnc(C)o4)cc23)cc1", "MAP3K1", "class 0"),
    ("Cc1ccc(-c2nc(Nc3ccncc3)c3ccccc3n2)s1", "MAP3K1", "class 1"),
]

Could you please find out whether `CS(=O)(=O)CCNCc1nc(-c2ccc3ncnc(Nc4ccc(OCc5ccccc5)c(Cl)c4)c3c2)cs1.Cl` has %Inh that meets 2% or exceeds it?
class 1

Same again, this time with `Cc1c(Cn2c(C)c(C)n3c(=O)cc(N4CCOCC4)nc23)cccc1C(F)(F)F`
class 1

Same again, this time with `Cc1ccc(NC(=O)Nc2ccc(Cl)cc2)cc1-c1ccc(C(=O)Nc2ccncc2)cc1`
class 1

Same again, this time with `Cc1nccc(-c2c(-c3ccc(F)cc3)ncn2CCCN2CCOCC2)n1.Cl`
class 1

Same again, this time with `COc1ccc(Nc2nccc(-c3ccc(NC(=O)c4cc5cc(F)ccc5[nH]4)cc3)n2)cc1`
class 0

###

Measured %Inh accompanies every entry in the list below.
System: WEE1
TEST CONDITIONS: concentration: 1 μM, replicates: in singlicate; n = 1
Only the number, expressed in %, is required.

Example results:
# COMPOUND, NUMBER
measured = [
    ("CS(=O)(=O)Cc1ccc(Nc2nccc(-c3c(-c4cccc(NC(=O)C5CCCCC5)c4)nn4ncccc34)n2)cc1 [GSK350559]", 0),
    ("Cc1ccccc1Cn1ccn2c(=O)cc(N3CCOCC3)nc12 [GSK2269905]", 0),
    ("CNc1nc(-c2ccc3c(N)n[nH]c3c2)cc(N2C[C@@H](C(=O)NC3CCCCC3)OC[C@H]2C)n1 [GSK2375584]", 29),
    ("CC(=O)c1cccc(NC(=O)NC2CCN(c3ccnc(Nc4ccc(F)cc4)n3)C2)c1 (centres unmarked) [GSK1379710]", 19),
    ("COc1cccc(CNC(=O)NC2CCN(c3ccnc(Nc4ccc(F)cc4)n3)C2)c1 (centres unmarked) [GSK1379723]", 3),
    ("O=c1cc(N2CCOCC2)nc2n(Cc3cccc(Cl)c3Cl)c3ccccc3n12 [GSK2299009]", 28),
    ("Cc1cccc2c(-c3ccncn3)c(-c3ccc(F)cc3)nn12 [GW515532]", 0),
]

What measured %Inh goes with O=C(Nc1n[nH]c2nc(-c3ccco3)c(Br)cc12)C1CCN(Cc2ccccc2)C1.O=C(O)[C@H](O)[C@@H](O)C(=O)O (centres unmarked) [SB-742034] ?
0

###

System: CDKL3
pKd: −log10 of the molar value.
QUANTITY: pKd

What measured pKd goes with CS(=O)(=O)CCNCc1nc(-c2ccc3ncnc(Nc4ccc5c(cnn5Cc5ccccc5)c4)c3c2)cs1.Cl.Cl [GW569716] ?
< 5.00

###

System: PIK3C2B
TEST CONDITIONS: concentration: 1 μM, replicates: in singlicate; n = 1
QUANTITY: %Inh (%)
Only the number, expressed in %, is required.

Example results:
# SMILES STRUCTURE, %Inh / %
measured = [
    ("Cl.Cl.Cl.N#Cc1ccc(CCNc2nccc(-c3cccc(CN4CCNCC4)c3)n2)cc1", 0),
    ("CC(=O)c1c(C)c2cnc(Nc3ccn(C)n3)nc2n(C2CCCC2)c1=O", 0),
    ("CS(=O)(=O)CCNCc1nc(-c2ccc3ncnc(Nc4ccc5c(cnn5Cc5ccccc5)c4)c3c2)cs1.Cl.Cl", 53),
    ("O=C(Nc1n[nH]c2cc(-c3ccsc3)ccc12)C1CC1", 14),
    ("COc1cccc(NC(=O)Nc2ccc(C)c(-c3ccc(C(=O)Nc4ccncc4)cc3)c2)c1", 100),
    ("CNc1cc(-c2ccc3c(N)n[nH]c3c2)nc(N)n1", 0),
    ("NS(=O)(=O)c1cccc(N/C=C2\\C(=O)Nc3ccc(S(=O)(=O)Cc4c(Cl)cccc4Cl)cc32)c1", 4),
]

The record that follows has no %Inh shown yet.
What measured %Inh goes with `Cc1ccc(NC(=O)Nc2ccccc2)cc1-c1ccc(C(=O)Nc2ccncc2)cc1` ?
27

###

Test system: IKK-epsilon
Construct: gene IKBKE
pKd: −log10 of the molar value.
QUANTITY: pKd

# COMPOUND, pKd
measured = [
    ("COc1ccc(Nc2nccc(N3CCC(NC(=O)C(C)c4ccc(Cl)cc4)CC3)n2)cc1 (centres unmarked)", "< 5.00"),
]

What measured pKd goes with `FC(F)(F)c1ccccc1-c1cc(-c2c[nH]nc2-c2ccccn2)ccn1` ?
< 5.00

###

Tested on: KIT-autoinhibited
TEST CONDITIONS: concentration: 1 μM, replicates: in singlicate; n = 1
QUANTITY: %Inh (%)
Only the number, expressed in %, is required.

Example results:
# MOLECULE, SYSTEM UNDER TEST, %Inh (%)
records = [
    ("Cc1c(Cn2c3ccccc3n3c(=O)cc(N4CCOCC4)nc23)cccc1C(F)(F)F [GSK2306394]", "KIT-autoinhibited", 0),
    ("COc1nccc(-c2c(-c3ccc(F)cc3)ncn2CCCN2CCOCC2)n1 [SB-282852]", "KIT-autoinhibited", 20),
    ("CNC(=O)c1ccc(C)c(-n2c(C)cc(OCc3ccc(F)cc3F)c(Br)c2=O)c1", "KIT-autoinhibited", 0),
    ("O=C(Nc1n[nH]c2cc(-c3ccsc3)ccc12)C1CC1 [SB-732932]", "KIT-autoinhibited", 0),
    ("COC(=O)c1cccc(NC(=O)NC2CCN(c3ccnc(Nc4ccc(F)cc4)n3)C2)c1 (stereo not drawn) [GSK1379725]", "KIT-autoinhibited", 0),
    ("CCc1ccc(-c2ccc3c(c2)-c2n[nH]cc2S(=O)(=O)N3C)cc1", "KIT-autoinhibited", 0),
    ("Cc1ccccc1-c1cc(-c2c[nH]nc2-c2ccccn2)ccn1 [GW680061]", "KIT-autoinhibited", 0),
    ("COc1ccc(CSc2nnc(-c3ccc4ncsc4c3)o2)cc1C(F)(F)F", "KIT-autoinhibited", 0),
]

For KIT-autoinhibited, provide %Inh of CC(C)c1cc(-c2ccc3c(N)n[nH]c3c2)nc(N)n1 [GSK2250882] please.
0

Same again, this time with COc1cccc(CNC(=O)NC2CCN(c3ccnc(Nc4ccc(F)cc4)n3)C2)c1 (stereo not drawn) [GSK1379723]
0

Same again, this time with CC(C)c1ccc(O)cc1Nc1ccnc2ccc(C(F)(F)F)cc12 [GW482059]
0

Same again, this time with COc1cccc(C2=C(Nc3cc(Cl)c(O)c(Cl)c3)C(=O)NC2=O)c1 [SB-390767]
0

Same again, this time with O=C(Nc1n[nH]c2nc(-c3cccs3)c(Br)cc12)C1CC1 [SB-735297]
0

Same again, this time with O=C1NC(=O)C(c2ccc(Cl)cc2)=C1Nc1ccc(O)cc1 [SB-340867]
0
